All values here come from ChEMBL document CHEMBL1138341.

Measured Ki values are reported for all entries that follow.
Target Under Test: Estrogen receptor (Homo sapiens, UniProt P03372)
Sequence (P03372 whole entry): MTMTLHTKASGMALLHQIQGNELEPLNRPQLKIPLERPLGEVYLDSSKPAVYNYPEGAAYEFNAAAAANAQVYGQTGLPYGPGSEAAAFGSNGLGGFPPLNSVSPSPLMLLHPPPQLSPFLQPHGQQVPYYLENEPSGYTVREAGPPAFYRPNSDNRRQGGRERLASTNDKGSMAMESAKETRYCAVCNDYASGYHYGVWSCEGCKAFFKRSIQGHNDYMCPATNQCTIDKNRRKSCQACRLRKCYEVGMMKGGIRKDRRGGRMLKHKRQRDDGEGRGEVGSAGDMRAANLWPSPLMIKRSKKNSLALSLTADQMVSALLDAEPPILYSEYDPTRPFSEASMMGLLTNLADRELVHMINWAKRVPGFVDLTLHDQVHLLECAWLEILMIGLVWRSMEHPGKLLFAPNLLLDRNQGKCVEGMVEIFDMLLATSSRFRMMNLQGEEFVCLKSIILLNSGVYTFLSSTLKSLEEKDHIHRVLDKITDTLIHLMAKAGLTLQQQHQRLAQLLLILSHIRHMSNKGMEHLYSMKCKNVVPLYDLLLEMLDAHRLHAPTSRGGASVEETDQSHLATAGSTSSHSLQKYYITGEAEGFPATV

Example results:
Query: Which value of Ki has been reported for COC(=O)[C@@H]1CC2=CC(=O)CC[C@]2(C)C2C1C1CC[C@@]3(CCC(=O)O3)[C@@]1(C)[C@H]1O[C@@H]21 (stereo partly drawn) [EPIERENONE] in the records?
Reply: > 1100 nM

Query: Which value of Ki has been reported for C[C@@](c1ccc(F)cc1)(c1c[nH]c2c(NS(C)(=O)=O)cccc12)C1CC1 in the records?
Reply: > 1100 nM

Kindly consider the entry below.
Query: Which value of Ki has been reported for C[C@](c1ccc(F)cc1)(c1c[nH]c2c(NS(C)(=O)=O)cccc12)C1CC1 in the records?
Reply: > 1100 nM
